I'd appreciate it if you could supply AC50 values for the items below.

Ask: Give AC50 (Melanocortin receptor 3 (Homo sapiens, UniProt P41968)) of the following compound: `CC(=O)O[C@H](CC(=O)[O-])C[N+](C)(C)C`
Result: > 30 µM

Ask: Provide the documented AC50 with Melanocortin receptor 3 (Homo sapiens, UniProt P41968) as the system for `CC(=O)N[C@@H](CS)C(=O)O`
Sequence (P41968 whole entry): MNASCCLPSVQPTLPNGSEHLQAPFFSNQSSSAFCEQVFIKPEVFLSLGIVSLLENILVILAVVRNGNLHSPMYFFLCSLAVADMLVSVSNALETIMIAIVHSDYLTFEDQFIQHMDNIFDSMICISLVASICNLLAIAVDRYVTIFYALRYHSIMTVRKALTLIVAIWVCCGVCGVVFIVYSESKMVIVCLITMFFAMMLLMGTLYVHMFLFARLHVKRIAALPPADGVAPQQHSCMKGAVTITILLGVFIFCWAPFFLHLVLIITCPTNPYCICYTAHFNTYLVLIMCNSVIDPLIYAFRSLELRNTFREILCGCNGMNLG
Result: > 30 µM

Ask: Field: AC50 (Melanocortin receptor 3 (Homo sapiens, UniProt P41968)). Entry: `CCN1CCN(Cc2ccc(Nc3ncc(F)c(-c4cc(F)c5nc(C)n(C(C)C)c5c4)n3)nc2)CC1`
Result: > 30 µM

Ask: Write down the reported AC50 of `Oc1ccc2c(c1)CC[C@H](c1ccccc1)[C@@H]2c1ccc(OCCN2CCCC2)cc1` , test system: Melanocortin receptor 3 (Homo sapiens, UniProt P41968). Note: assay procedure not described here.
Result: 11 µM

Ask: Request - read-out AC50 | tested on Melanocortin receptor 3 (Homo sapiens, UniProt P41968) | compound `CN(C)CC[C@@H](c1ccc(Cl)cc1)c1ccccn1`; note: assay procedure not described here
Result: > 30 µM

###

ASSAY_ENDPOINT: AC50

Ask: Recall the recorded AC50 for CN(C)CCOC(c1ccccc1)c1ccc(Br)cc1 (centres undefined) [BROMODIPHENHYDRAMINE] with Alpha-2A adrenergic receptor (Homo sapiens) and state it.
Sequence (P08913 whole entry): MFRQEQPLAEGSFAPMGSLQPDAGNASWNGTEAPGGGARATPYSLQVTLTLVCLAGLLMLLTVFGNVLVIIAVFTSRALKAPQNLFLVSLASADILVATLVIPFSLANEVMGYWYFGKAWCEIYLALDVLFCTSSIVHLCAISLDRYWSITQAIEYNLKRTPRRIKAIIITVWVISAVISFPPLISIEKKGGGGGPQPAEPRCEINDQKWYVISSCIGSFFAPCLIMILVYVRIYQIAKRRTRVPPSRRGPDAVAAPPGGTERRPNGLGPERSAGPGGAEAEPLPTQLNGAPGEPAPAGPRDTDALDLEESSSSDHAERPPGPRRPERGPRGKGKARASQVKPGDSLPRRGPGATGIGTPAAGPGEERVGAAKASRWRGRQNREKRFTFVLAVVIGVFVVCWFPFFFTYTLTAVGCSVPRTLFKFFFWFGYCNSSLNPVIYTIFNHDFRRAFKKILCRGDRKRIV
Result: 8.38 µM

Ask: // fetch Alpha-2A adrenergic receptor (Homo sapiens) AC50 for C[N+](C)(C)C[C@H](O)CC(=O)[O-] [LEVOCARNITINE]
Result: > 30 µM

Ask: Give Alpha-2A adrenergic receptor (Homo sapiens) AC50 for CCC(=O)O[C@]1(C(=O)SCF)[C@H](C)C[C@H]2[C@@H]3C[C@H](F)C4=CC(=O)C=C[C@]4(C)[C@@]3(F)[C@@H](O)C[C@@]21C [FLUTICASONE PROPIONATE]
Result: > 30 µM

Ask: Record lookup: for Alpha-2A adrenergic receptor (Homo sapiens), what AC50 belongs to CCOC(=O)N1CSC[C@H]1C(=O)O [TELMESTEINE] ?
Result: > 30 µM

Ask: Any idea what AC50 came out for CC(=O)Oc1cc(C(F)(F)F)ccc1C(=O)O [TRIFLUSAL] on Alpha-2A adrenergic receptor (Homo sapiens)?
Result: > 30 µM

Ask: Could you share what AC50 was measured for Cc1ncc(COP(=O)(O)O)c(C=O)c1O [PYRIDOXAL PHOSPHATE ANHYDROUS] , tested on Alpha-2A adrenergic receptor (Homo sapiens)?; note: assay procedure not described here
Result: > 30 µM

Ask: GET /values?readout=AC50&system=Alpha-2A adrenergic receptor (Homo sapiens)&item= [H]/N=C(\N/C(=N/[H])Nc1ccc(Cl)cc1)NC(C)C [PROGUANIL]; note: assay procedure not described here
Result: 11.9 µM

Ask: Notebook entry, Alpha-2A adrenergic receptor (Homo sapiens) assay: AC50 of `CCOC(=O)[C@H](CCc1ccccc1)N[C@@H](C)C(=O)N(CC(=O)O)C1Cc2ccccc2C1` = ?
Result: > 30 µM

Ask: Request body: readout AC50, system Alpha-2A adrenergic receptor (Homo sapiens), query N[C@@H](CO)C(=O)O [SERINE] . Return the value. Note: assay procedure not described here.
Result: > 30 µM

###

target: Histamine H2 receptor (Homo sapiens); format: functional, cell-based; note: assay procedure not described here
Sequence (P25021 whole entry): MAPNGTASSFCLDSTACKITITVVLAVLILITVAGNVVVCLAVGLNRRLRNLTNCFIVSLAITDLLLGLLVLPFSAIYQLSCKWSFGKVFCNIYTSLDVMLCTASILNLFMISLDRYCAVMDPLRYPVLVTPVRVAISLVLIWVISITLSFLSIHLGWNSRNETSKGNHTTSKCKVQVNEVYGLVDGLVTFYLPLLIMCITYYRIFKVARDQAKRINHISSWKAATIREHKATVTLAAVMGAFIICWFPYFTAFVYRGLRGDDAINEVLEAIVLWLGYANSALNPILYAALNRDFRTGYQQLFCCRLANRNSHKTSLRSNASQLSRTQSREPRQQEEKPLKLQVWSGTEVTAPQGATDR
ASSAY_ENDPOINT: AC50

Ask: Give recorded AC50 with Histamine H2 receptor (Homo sapiens) for the following molecule: CC(C)(C)C(=O)OCC(=O)[C@H]1CC[C@H]2[C@@H]3CCC4=CC(=O)CC[C@]4(C)[C@H]3CC[C@]12C [DESOXYCORTICOSTERONE PIVALATE]
Result: > 10 µM

Ask: Lab note: need AC50 for `CCCN(CCC)C(=O)Cc1c(-c2ccc(Cl)cc2)nc2ccc(Cl)cn12` on Histamine H2 receptor (Homo sapiens), anyone have it?
Result: > 30 µM

Ask: Form field: AC50 recorded for `CC(=O)[C@]1(O)Cc2c(O)c3c(c(O)c2[C@@H](O[C@H]2C[C@H](N)[C@H](O)[C@H](C)O2)C1)C(=O)c1ccccc1C3=O` with Histamine H2 receptor (Homo sapiens) (enter value)
Result: > 30 µM

Ask: # returns recorded AC50 (system: Histamine H2 receptor (Homo sapiens)) for `CN1CCC(=C2c3ccccc3CCc3cccnc32)CC1`; note: assay procedure not described here
Result: > 10 µM

Ask: Field: AC50 (Histamine H2 receptor (Homo sapiens)). Entry: CN(CC1(C)CCCO1)S(=O)(=O)c1ccc(Cl)c(S(N)(=O)=O)c1 (stereo not drawn) [MEFRUSIDE]
Result: > 30 µM

Ask: GET /values?readout=AC50&system=Histamine H2 receptor (Homo sapiens)&item= Cc1cccc(N2CC(CO)OC2=O)c1 (stereo not drawn); note: assay procedure not described here
Result: > 30 µM

Ask: Lab note: need AC50 for `[H]/N=C(/N)N/C(=N/[H])NCCc1ccccc1` on Histamine H2 receptor (Homo sapiens), anyone have it?
Result: > 30 µM

Ask: Could you share what AC50 was measured for `C[C@H]1c2cccc(O)c2C(=O)C2=C(O)[C@]3(O)C(=O)C(C(N)=O)=C(O)[C@@H](N(C)C)[C@@H]3[C@@H](O)[C@@H]21` , tested on Histamine H2 receptor (Homo sapiens)?; note: assay procedure not described here
Result: > 10 µM

Origin of the recorded values: ChEMBL document CHEMBL5291721
